System: Human immunodeficiency virus 1
EXPERIMENT_SUMMARY: Antiviral activity against HIV-1 harboring NNTRI-resistant reverse transcriptase Y181C mutant infected in human MT4 cells assessed as inhibition of virus-induced cytopathic effect by MTT method
Type: functional, organism-based
CONDITION_SET: Human immunodeficiency virus 1, MT4
pEC50: −log10 of the molar value.
Use pEC50 to assign classes; range list: low-valued = under 5, mid-valued = from 5 up to 6, high-valued = 6 and over

Recorded results for 5 compounds are shown here.
CC(c1cc(=O)[nH]c(SC2CCCC2)n1)c1c(F)cccc1Cl (racemic) : mid-valued
CC[C@H](C)Sc1nc([C@H](C)c2c(F)cccc2Cl)c(C)c(=O)[nH]1 (racemic) : low-valued
CC(C)Sc1nc(Cc2c(F)cccc2Cl)cc(=O)[nH]1 : low-valued
Cc1c(O)nc(SC(C)C)nc1C(C)c1c(F)cccc1F (racemic) : high-valued
CCCCSc1nc(Cc2c(F)cccc2Cl)c(C)c(=O)[nH]1 : mid-valued

Class (by measured pEC50) for CCCCSc1nc(C(C)c2c(F)cccc2Cl)c(C)c(=O)[nH]1 (racemic)
high-valued

Class (by measured pEC50) for CCCSc1nc(Cc2c(F)cccc2Cl)c(C)c(=O)[nH]1
mid-valued

Class (by measured pEC50) for CCCCSc1nc(C(C)c2c(F)cccc2Cl)cc(=O)[nH]1 (racemic)
mid-valued

Class (by measured pEC50) for CCC(C)Sc1nc(Cc2c(F)cccc2Cl)c(C)c(=O)[nH]1 (stereo unspecified)
mid-valued

Class (by measured pEC50) for CC[C@@H](C)Sc1nc([C@H](C)c2c(F)cccc2Cl)cc(=O)[nH]1
high-valued

Class (by measured pEC50) for Cc1c(C(C)c2c(F)cccc2F)nc(SC2CCCC2)[nH]c1=O (racemic)
high-valued

The measurements presented in this section are drawn from ChEMBL document CHEMBL3286172.
